Consider the following compounds and their measured Ki readings.
Molecular target: MMP-1 (human interstitial collagenase) (Homo sapiens)
Construct: truncated recombinant enzyme encompassing residues 101-269
Sequence (P03956 101-269): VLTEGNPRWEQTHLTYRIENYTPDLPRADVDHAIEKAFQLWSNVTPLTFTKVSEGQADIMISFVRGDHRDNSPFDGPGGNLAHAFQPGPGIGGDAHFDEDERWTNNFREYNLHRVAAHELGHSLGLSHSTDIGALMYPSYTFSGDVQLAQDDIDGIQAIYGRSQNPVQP
Experiment: Biochemical Assay (Protocol A): inhibition of human collagenase, fluorimetric peptide substrate
Conditions: MMP-1, pH 7.4, 37° C.
Put down the number, then write its unit next to it.

Here's what some known entries look like.
[[record]]
compound = "CNC(=O)[C@H](Cc1ccccc1)NC(=O)[C@H](CC(C)C)C1(C(=O)NO)CC1"
assay_metric = "Ki"
observed_measurement = "25 nM"

[[record]]
compound = "CNC(=O)[C@@H](NC(=O)[C@H](CC(C)C)[C@@](COC1CCCCO1)(OC1CCCCO1)C(=O)NO)C(C)(C)C (stereo partly shown)"
assay_metric = "Ki"
observed_measurement = "45 nM"


Find the recorded Ki belonging to CNC(=O)[C@@H](NC(=O)[C@H](CC(C)C)[C@](O)(CO)C(=O)NO)C(C)(C)C and report it.
2.3 nM

Quick one: CNC(=O)[C@@H](NC(=O)[C@H](CC(C)C)[C@](O)(COC(=O)NC1CCCCC1)C(=O)NO)C(C)(C)C
1.5 nM

* * *

Test: Pharmacokinetic Assay (Protocol C): plasma levels after i.v. and oral administration to rats
Assay type: in vivo, rat (male Sprague-Dawley)
Conditions: rat, plasma, 15 mg/kg, terminal half-life, read-out: t1/2,z (converted)
Measured half-life, listed per entry for reference.

[[record]]
mol_smiles = "CNC(=O)[C@@H](NC(=O)[C@H](CC(C)C)[C@](O)(CO)C(=O)NO)C(C)(C)C"
observed_measurement = "5.4 h"


Shifting focus to the molecule that follows.
Which half-life value is on record for CNC(=O)[C@@H](NC(=O)[C@H](CC(C)C)[C@](O)(COC(=O)NC1CCCCC1)C(=O)NO)C(C)(C)C ?
2.3 h

* * *

Sequence of the target: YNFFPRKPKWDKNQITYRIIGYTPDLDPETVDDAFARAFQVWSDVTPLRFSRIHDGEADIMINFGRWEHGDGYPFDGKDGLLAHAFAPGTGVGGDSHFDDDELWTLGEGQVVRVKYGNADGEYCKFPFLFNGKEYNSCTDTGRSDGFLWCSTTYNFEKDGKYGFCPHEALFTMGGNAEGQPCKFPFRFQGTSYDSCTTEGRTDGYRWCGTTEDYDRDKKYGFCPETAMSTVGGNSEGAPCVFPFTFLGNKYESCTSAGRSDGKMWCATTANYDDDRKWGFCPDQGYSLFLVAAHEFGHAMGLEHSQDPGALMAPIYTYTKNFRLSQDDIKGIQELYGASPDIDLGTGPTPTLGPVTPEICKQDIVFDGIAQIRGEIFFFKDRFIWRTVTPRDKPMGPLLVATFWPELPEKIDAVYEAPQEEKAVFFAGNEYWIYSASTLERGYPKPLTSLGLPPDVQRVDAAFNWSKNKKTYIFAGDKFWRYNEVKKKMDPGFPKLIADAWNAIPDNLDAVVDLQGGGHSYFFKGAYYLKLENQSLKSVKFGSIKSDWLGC
ASSAY METRIC: Ki (nM)
Your answer is read as nM, so omit the unit and give the number.

Example cases with answers are listed next.
[[record]]
molecule = "CNC(=O)[C@H](Cc1ccccc1)NC(=O)[C@H](CC(C)C)[C@](O)(CO)C(=O)NO"
assay_metric = "Ki"
u = "nM"
observed_measurement = 3.1

[[record]]
molecule = "CNC(=O)[C@@H](NC(=O)[C@H](CC(C)C)[C@](O)(COC(=O)C(C)(C)C)C(=O)NO)C(C)(C)C"
assay_metric = "Ki"
u = "nM"
observed_measurement = 6.5


Report Ki for CNC(=O)[C@H](Cc1ccccc1)NC(=O)[C@H](CC(C)C)[C@](O)(COC1CCCCO1)C(=O)NO (stereo partly shown) please.
0.62

// next record CC(C)C[C@@H](C(=O)N[C@H](C(=O)Nc1ccncc1)C(C)(C)C)[C@](O)(CO)C(=O)NO
9.5

Reference source for all entries: patent US6194451A
